assay: Antagonist activity at angiotensin AT1 receptor in rat mesenteric artery; format: functional
metricName: pIC50
Give bare numbers, as −log10 of the molar value.

What value of measured pIC50 is listed for "CCCCc1nc2c(n1Cc1ccc(-c3ccccc3-c3nnn[nH]3)cc1)C(=O)N1C3CCC(CC3)N1C2" ?
8.89

----------
assay: Displacement of radiolabeled angiotensin2 from angiotensin AT1 receptor in rat adrenal cortex membranes; assay type: cell membranes, Membrane
Consider the following compounds; for each one, report its pIC50.
Give bare numbers, as −log10 of the molar value.

As a guide, the following entries are already answered.
CCCCc1nc(SC)c(C(=O)O)n1Cc1ccc(-c2ccccc2-c2nnn[nH]2)cc1
9.70
CCCCc1nc(Cl)c(CO)n1Cc1ccc(-c2ccccc2-c2nnn[nH]2)cc1
7.72
CCCc1nc(C(F)(F)C(F)(F)F)c(C(=O)O)n1Cc1ccc(-c2ccccc2-c2nn[nH]n2)cc1
8.51
CCCc1nc(CC)c(C(=O)O)n1Cc1ccc(-c2ccccc2-c2nn[nH]n2)cc1
8.22
CCCc1nc(CC)c(C=O)n1Cc1ccc(-c2ccccc2-c2nn[nH]n2)cc1
8.68

Shift focus to the following entry.
What value of measured pIC50 is listed for CCCCc1nc(Cl)c(C(=O)O)n1Cc1ccc(-c2ccccc2-c2nn[nH]n2)cc1 [CARBOXYLIC ACID METABOLITE] ?
9.43
